# study-target: Protein kinase C delta type (Homo sapiens, UniProt Q05655)
# Sequence (Q05655 whole entry): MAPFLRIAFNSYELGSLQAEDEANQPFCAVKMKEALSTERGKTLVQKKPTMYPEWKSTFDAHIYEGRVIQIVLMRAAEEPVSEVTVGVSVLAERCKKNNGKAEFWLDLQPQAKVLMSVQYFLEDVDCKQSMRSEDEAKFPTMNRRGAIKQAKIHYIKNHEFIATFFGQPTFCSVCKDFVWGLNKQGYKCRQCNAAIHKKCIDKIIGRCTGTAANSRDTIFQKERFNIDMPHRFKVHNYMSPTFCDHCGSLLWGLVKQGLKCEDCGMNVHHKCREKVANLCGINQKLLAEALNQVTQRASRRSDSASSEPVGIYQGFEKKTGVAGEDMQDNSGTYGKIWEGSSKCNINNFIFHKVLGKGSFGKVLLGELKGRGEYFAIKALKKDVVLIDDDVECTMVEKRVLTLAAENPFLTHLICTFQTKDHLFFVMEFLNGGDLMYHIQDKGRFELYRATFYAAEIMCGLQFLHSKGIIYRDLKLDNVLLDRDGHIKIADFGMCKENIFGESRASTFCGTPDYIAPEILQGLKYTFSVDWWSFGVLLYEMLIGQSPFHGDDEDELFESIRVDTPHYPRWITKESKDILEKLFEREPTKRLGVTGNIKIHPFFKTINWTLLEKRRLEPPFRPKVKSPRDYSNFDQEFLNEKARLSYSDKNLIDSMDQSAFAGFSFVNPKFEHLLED
# assay-overview: Inhibition of Protein kinase C delta
readout-label: pIC50
Numbers only, as −log10 of the molar value.

Sample records with pIC50:
O=C(N[C@@H]1CCC[C@H]1OCc1cc(O)c(C(=O)c2c(O)cccc2C(=O)O)c(O)c1)c1ccc(O)cc1 : 7.70
C[C@@]1(OC(=O)c2cc(O)c(C(=O)c3c(O)cccc3C(=O)O)c(O)c2)CCCNC[C@H]1NC(=O)c1ccc(O)cc1 : 7.52
O=C(N[C@@H]1CCC[C@H]1OC(=O)c1cc(O)c(C(=O)c2c(O)cccc2C(=O)O)c(O)c1)c1ccc(O)cc1 : 9.00
O=C(N[C@@H]1CNC[C@H]1NC(=O)c1cc(O)c(C(=O)c2c(O)cccc2C(=O)O)c(O)c1)c1ccc(O)cc1 : 7.92
O=C(N[C@@H]1CCCNC[C@H]1NC(=O)c1ccc(O)cc1)c1cc(O)c(C(=O)c2c(O)cccc2C(=O)O)c(O)c1 : 6.66

The following compounds each have a reported value; give each one's pIC50.
1. O=C(N[C@@H]1CNCCC[C@H]1OC(=O)c1cc(O)c(C(=O)c2c(O)cccc2C(=O)O)c(O)c1)c1ccc(O)cc1 (racemic) [BALANOL]
2. O=C(N[C@@H]1CCC[C@H]1COC(=O)c1cc(O)c(C(=O)c2c(O)cccc2C(=O)O)c(O)c1)c1ccc(O)cc1

7.64
7.70
